# System: Mus musculus
# Experiment Description: Tested for biodistribution of radioactivity after 6 hr of intravenous injection in mice stomach
# Format: ADME, organism-based
# Test Context: in vivo
Endpoint Label: Dose/organ (%)
Numbers only; they are read as %.

Observe how each entry below is paired with its result.
Problem: What Dose/organ value was documented for this molecule, NCCCCC(N)C(=O)NC(=O)c1cccc(I)c1 (stereo not given) ?
Result: 1.3

Problem: What Dose/organ value was documented for this molecule, N[C@@H](CSC1CC(=O)N(CCOC(=O)CNC(=O)c2cccc(I)c2)C1=O)C(=O)O (stereo not given in full) ?
Result: 0.84

Problem: What Dose/organ value was documented for this molecule, CN[C@@H](CSC1CC(=O)N(CCOC(=O)CNC(=O)c2cccc(I)c2)C1=O)C(=O)O (stereo not given in full) ?
Result: 0.45

Problem: What Dose/organ value was documented for this molecule, CN[C@@H](CCCCN)C(=O)NC(=O)c1cccc(I)c1 ?
Result: 0.32

Next molecule, please.
Problem: What Dose/organ value was documented for this molecule, CCc1ccc(O)c(I)c1 ?
Result: 13.22
